- Protocol: Biodistribution of 68Ga-labeled peptide in mice bearing B16F10 mouse melanoma
- Format: in vivo, C57BL/6J mice
- Experimental Parameters: stomach, iv, total radioactivity, 2 h p.i. unblocked, C57BL/6J mice, B16F10 melanoma, read-out: Biodistribution, Stomach
Endpoint Name: tissue uptake at 2 h (%ID/g)
Numbers only, in %ID/g.

## Input So what does the record say about tissue uptake at 2 h for CCCC[C@H](NC(=O)CN1CCC(NC(=O)CN2CCN(CC(=O)O)CCN(CC(=O)O)CCN(CC(=O)O)CC2)CC1)C(=O)N[C@H]1CC(=O)NCCCC[C@@H](C(N)=O)N(C)C(=O)[C@H](Cc2c[nH]c3ccccc23)N(C)C(=O)[C@H](CCCNC(=N)N)N(C)C(=O)[C@@H](Cc2ccccc2)NC(=O)[C@H](Cc2c[nH]cn2)N(C)C1=O [^68Ga-labeled CCZ01099, metal not drawn] ?
## Output 0.2
